assay: Pharmacokinetics in mini-pigs after i.v. administration; conditions: female, Göttingen, minipig, plasma, iv, 5 nmol/kg, T1/2 Mean Value, Göttingen mini-pigs, N=3
Where no end group is shown, it is not given here.
Give measured half-life for each item. Keep answers brief.
Answers are plain numbers, in h.

SUBSTANCE	half-life, h
HAEGTFTSDVSSYLEGQAAKEFIAWLVEKVKEHL-NH2 [Compound 107]	5.4

Please look at the following substance next.
Ask: Using the record for HAEGTFTSDVSSYLEGEAVKEFIAWLVEKVKEFL-NH2 [Compound 67] , report its half-life.
Result: 33

* * *

test: in vivo; conditions: female, Göttingen, minipig, in vivo, iv, 5 nmol/kg, T1/2 Mean Value
Where no end group is shown, it is not given here.
Can you tell me half-life for the items I'm about to list?
One number for each entry, in h.

Could you report half-life for every entry in the following list?
1. HGEGTFTSDVSSYLEGEAVKEFIAWLVEKVKEHL-NH2 [Compound 78]
2. HGEGTFTSDVSSYLEGEAVKEFIAWLVEKVKEFL-NH2 [Compound 76]

Result:
20.6
41.7

* * *

molecular target: human GLP-1 receptor (Homo sapiens, UniProt P43220); assay: Functional GLP-1 receptor assay, in vitro potency (CRE luciferase; whole cells); assay type: cell-based; conditions: BHK cells expressing human GLP-1 receptor, 0% HSA; read-out: GLP1R CRE luc 0% HSA EC50 Mean Value
Sequence (P43220 24-463): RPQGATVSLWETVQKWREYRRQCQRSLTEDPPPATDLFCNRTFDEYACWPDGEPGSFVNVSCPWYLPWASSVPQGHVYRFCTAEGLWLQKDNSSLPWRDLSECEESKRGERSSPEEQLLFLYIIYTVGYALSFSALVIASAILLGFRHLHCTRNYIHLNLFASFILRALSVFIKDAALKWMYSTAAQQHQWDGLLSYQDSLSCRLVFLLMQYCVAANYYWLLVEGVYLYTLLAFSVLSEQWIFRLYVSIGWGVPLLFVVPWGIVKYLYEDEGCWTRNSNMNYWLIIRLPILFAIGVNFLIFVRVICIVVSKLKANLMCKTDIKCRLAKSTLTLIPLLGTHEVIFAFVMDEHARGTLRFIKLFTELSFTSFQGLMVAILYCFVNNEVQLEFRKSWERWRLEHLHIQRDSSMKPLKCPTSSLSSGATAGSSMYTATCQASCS
Where no end group is shown, it is not given here.
MEASURED_ENDPOINT: pEC50
Answers are plain numbers, as −log10 of the molar value.

SUBSTANCE	SYSTEM_UNDER_TEST	MEASURED_ENDPOINT	OBSERVED
H-HAEGTFTSDVSSYLEGQAAKEFIAWLVEKVKEFLER-OH [Compound 130]	human GLP-1 receptor (Homo sapiens, UniProt P43220)	pEC50	10.47
HAEGTFTSDVSSYLEGQAAKEFIAWLVEKVKEF-NH2 [Compound 122]	human GLP-1 receptor (Homo sapiens, UniProt P43220)	pEC50	10.80
HAEGTFTSDVSSYLEGQAAKEFIAWLVEKVKEFLE-NH2 [Compound 106]	human GLP-1 receptor (Homo sapiens, UniProt P43220)	pEC50	9.94

Each of the following entries comes with a recorded value; kindly state pEC50 for each.
1. HAEGTFTSDVSSYLEGQAAKEFIAWLVEKVKEFL-NH2 [Compound 104]
2. H-HAEGTFTSDVSSYLEGEAVREFIAWLVERVREFLEK-OH [Compound 138]
3. H-HAEGTFTSDVSSYLEGQAAKEFIAWLVEKVKEFLEK-OH [Compound 124]
4. HGEGTFTSDVSSYLEEEAVKEFIAWLVEKVKEF-NH2 [Compound 133]

Result:
1. 9.94
2. 10.39
3. 10.52
4. 9.98

* * *

molecular target: human GLP-1 receptor (Homo sapiens, UniProt P43220); assay: Functional GLP-1 receptor assay, in vitro potency (CRE luciferase; whole cells); format: cell-based; details: GLP1R CRE luc 1% HSA EC50 Mean Value, BHK cells expressing human GLP-1 receptor, 1% HSA
Where no end group is shown, it is not given here.
MEASURED_ENDPOINT: EC50 (nM)
One number for each entry, in nM.

Observe how each entry below is paired with its result.
SUBSTANCE	EC50, nM
H-HAEGTFTSDVSSYLEGQAAKEFIAWLVEGVKEFLEK-OH [Compound 127]	0.023
H-HAEGTFTSDVSSYLEGEAVREFIAWLVERVREFLEK-OH [Compound 138]	0.017
HAEGTFTSDVSSYLEGQAAKEFIAWLVEKVKEF-NH2 [Compound 122]	0.005

// input: 4 substances below; output: EC50 for each
1. H-HAEGTFTSDVSSYLEGEAVKEFIAWLVEKVKEFLEK-OH [Compound 123]
2. H-HAEGTFTSDVSSYLEGEAVREFIAWLVHRVREFLEK-OH [Compound 139]
3. HAEGTFTSDVSSYLEGQAAKEFIAWLVEKVKEFY-NH2 [Compound 131]
4. HAEGTFTSDVSSYLEGQAAKEFIAWLVEKVGEFL-NH2 [Compound 108]

Result:
0.031
0.014
0.014
0.017

Please look at the items below and tell me EC50 for each one, in order.
1. HAEGTFTSDVSSYLEEEAVKEFIAWLVEKVKEF-NH2 [Compound 132]
2. H-HAEGTFTSDVSSYLEGQAAKEFIAWLVEKVGEFLEK-OH [Compound 128]
3. HAEGTFTSDLSKQMEEEAVREFIEWLKNKVLEFL-NH2 [Compound 69]
4. HAEGTFTSDVSSYLEGQAAKEFIAWLVEKVKEFLE-NH2 [Compound 106]

Result:
0.01
0.013
0.02
0.028
